The following molecules are listed with their measured GI50 at 72 h values.
test: Antiproliferative activity against rat 3Y1 cells after 3 days by tetrazolium based cell counting assay

Below: 2 molecules and their reported GI50 at 72 h.
INSERT INTO assay_data (molecule, quantity, result) VALUES
  ('COC[C@@H](CC1O[C@@](O)([C@H](O)C2CC(=O)/C(C)=C/C(C)=C/C(C)=C/[C@@H](C)[C@H](O[C@@H]3O[C@@H](C)[C@H](OC)[C@@H](O)[C@@H]3OC(=O)c3ccccc3)/C=C/C(C)=C/CC[C@H](O)[C@@H](OC)C2)[C@H](C)[C@@H](O)[C@H]1C)O[C@H]1C[C@](C)(O)[C@@H](O[C@H]2C[C@@H](OC)[C@H](O)[C@@H](C)O2)[C@H](C)O1 (stereo partly drawn)', 'GI50 at 72 h', '> 1 µM'),
  ('COC[C@@H](CC1O[C@@](O)([C@H](O)C2CC(=O)/C(C)=C/C(C)=C/C(C)=C/[C@@H](C)[C@H](O[C@@H]3O[C@@H](C)[C@H](OC)[C@@H](O)[C@@H]3O)/C=C/C(C)=C/CC[C@H](OC(C)=O)[C@@H](OC)C2)[C@H](C)[C@@H](O)[C@H]1C)O[C@H]1C[C@](C)(O)[C@@H](O[C@H]2C[C@@H](OC)[C@H](O)[C@@H](C)O2)[C@H](C)O1 (stereo partly drawn)', 'GI50 at 72 h', '> 1 µM');

Could you now consider this next molecule?
Form field GI50 at 72 h, entry COC[C@@H](CC1O[C@@](O)([C@H](OC)C2CC(=O)/C(C)=C/C(C)=C/C(C)=C/[C@@H](C)[C@H](O[C@@H]3O[C@@H](C)[C@H](OC)[C@@H](O)[C@@H]3O)/C=C/C(C)=C/CC[C@H](O)[C@@H](OC)C2)[C@H](C)[C@@H](O)[C@H]1C)O[C@H]1C[C@](C)(O)[C@@H](O[C@H]2C[C@@H](OC)[C@H](O)[C@@H](C)O2)[C@H](C)O1 (stereo partly drawn) : > 1 µM

* * *

biological target: ATP synthase subunit beta, mitochondrial (Saccharomyces cerevisiae S288c, UniProt P00830); test: Inhibition of yeast mitochondrial F0F1-ATPase
Sequence (P00830 whole entry): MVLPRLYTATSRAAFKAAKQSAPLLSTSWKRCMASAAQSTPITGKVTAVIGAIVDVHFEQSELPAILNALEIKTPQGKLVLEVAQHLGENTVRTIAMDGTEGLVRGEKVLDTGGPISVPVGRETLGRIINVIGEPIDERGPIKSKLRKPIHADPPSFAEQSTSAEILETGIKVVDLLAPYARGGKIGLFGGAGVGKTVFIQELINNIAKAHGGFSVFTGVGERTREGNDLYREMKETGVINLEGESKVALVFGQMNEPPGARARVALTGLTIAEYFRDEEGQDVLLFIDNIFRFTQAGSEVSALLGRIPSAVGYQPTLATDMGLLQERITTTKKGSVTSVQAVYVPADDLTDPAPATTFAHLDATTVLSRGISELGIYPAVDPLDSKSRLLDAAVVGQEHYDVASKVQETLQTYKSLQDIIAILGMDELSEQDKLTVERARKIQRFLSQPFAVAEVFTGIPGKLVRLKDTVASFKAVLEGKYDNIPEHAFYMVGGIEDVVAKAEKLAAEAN
The following molecules are listed with their measured IC50 values.
State just the number; it will be interpreted in µM.

Below: 6 molecules and their reported IC50.
INSERT INTO results (molecule, number) VALUES
  ('COC[C@@H](CC1O[C@@](O)([C@H](O)C2CC(=O)/C(C)=C/C(C)=C/C(C)=C/[C@@H](C)[C@H](O[C@@H]3O[C@@H](C)[C@H](OC)[C@@H](OC(C)=O)[C@@H]3O)/C=C/C(C)=C/CC[C@H](O)[C@@H](OC)C2)[C@H](C)[C@@H](O)[C@H]1C)O[C@H]1C[C@](C)(O)[C@@H](O[C@H]2C[C@@H](OC)[C@H](O)[C@@H](C)O2)[C@H](C)O1 (some centres not stated)', 0.4),
  ('COC[C@@H](CC1O[C@@](O)([C@H](O)C2CC(=O)/C(C)=C/C(C)=C/C(C)=C/[C@@H](C)[C@H](O[C@@H]3O[C@@H](C)[C@H](OC)[C@@H](O)[C@@H]3O)/C=C/C(C)=C/CC[C@H](O)[C@@H](OC)C2)[C@H](C)[C@@H](OC(C)=O)[C@H]1C)O[C@H]1C[C@](C)(O)[C@@H](O[C@H]2C[C@@H](OC)[C@H](OC(C)=O)[C@@H](C)O2)[C@H](C)O1 (some centres not stated)', 0.4),
  ('COC[C@@H](CC1O[C@@](O)([C@H](O)C2CC(=O)/C(C)=C/C(C)=C/C(C)=C/[C@@H](C)[C@H](O[C@@H]3O[C@@H](C)[C@H](OC)[C@@H](O)[C@@H]3O)/C=C/C(C)=C/CC[C@H](O)[C@@H](OC)C2)[C@H](C)[C@@H](O)[C@H]1C)O[C@H]1C[C@](C)(O)[C@@H](O[C@H]2C[C@@H](OC)[C@H](OC(C)=O)[C@@H](C)O2)[C@H](C)O1 (some centres not stated)', 0.8),
  ('COC[C@@H](CC1O[C@@](O)([C@H](O)C2CC(=O)/C(C)=C/C(C)=C/C(C)=C/[C@@H](C)[C@H](O[C@@H]3O[C@@H](C)[C@H](OC)[C@@H](O)[C@@H]3OC(=O)c3ccccc3)/C=C/C(C)=C/CC[C@H](O)[C@@H](OC)C2)[C@H](C)[C@@H](O)[C@H]1C)O[C@H]1C[C@](C)(O)[C@@H](O[C@H]2C[C@@H](OC)[C@H](O)[C@@H](C)O2)[C@H](C)O1 (some centres not stated)', 0.3),
  ('COC[C@@H](CC1O[C@@](O)([C@H](O)C2CC(=O)/C(C)=C/C(C)=C/C(C)=C/[C@@H](C)[C@H](O[C@@H]3O[C@@H](C)[C@H](OC)[C@@H](O)[C@@H]3O)/C=C/C(C)=C/CC[C@H](OC(C)=O)[C@@H](OC)C2)[C@H](C)[C@@H](O)[C@H]1C)O[C@H]1C[C@](C)(O)[C@@H](O[C@H]2C[C@@H](OC)[C@H](O)[C@@H](C)O2)[C@H](C)O1 (some centres not stated)', 0.8),
  ('COC[C@@H](CC1O[C@@](O)([C@@H]2OC(=O)/C(C)=C/C(C)=C/C(C)=C/[C@@H](C)[C@H](O[C@@H]3O[C@@H](C)[C@H](OC)[C@@H](O)[C@@H]3O)/C=C/C(C)=C/CC[C@H](O)[C@@H](OC)C[C@@H]2O)[C@H](C)[C@@H](O)[C@H]1C)O[C@H]1C[C@](C)(O)[C@@H](O[C@H]2C[C@@H](OC)[C@H](O)[C@@H](C)O2)[C@H](C)O1 (some centres not stated) [ISOAPOPTOLIDIN]', 17);

Form field IC50, entry COC[C@@H](CC1O[C@@](O)([C@H](OC(C)=O)C2CC(=O)/C(C)=C/C(C)=C/C(C)=C/[C@@H](C)[C@H](O[C@@H]3O[C@@H](C)[C@H](OC)[C@@H](O)[C@@H]3O)/C=C/C(C)=C/CC[C@H](O)[C@@H](OC)C2)[C@H](C)[C@@H](O)[C@H]1C)O[C@H]1C[C@](C)(O)[C@@H](O[C@H]2C[C@@H](OC)[C@H](O)[C@@H](C)O2)[C@H](C)O1 (some centres not stated) : 1.1
